- system: T1, recombinant CD138 extracellular domain (soluble CD138) (UniProt P18827 23-250)
- T1 chain: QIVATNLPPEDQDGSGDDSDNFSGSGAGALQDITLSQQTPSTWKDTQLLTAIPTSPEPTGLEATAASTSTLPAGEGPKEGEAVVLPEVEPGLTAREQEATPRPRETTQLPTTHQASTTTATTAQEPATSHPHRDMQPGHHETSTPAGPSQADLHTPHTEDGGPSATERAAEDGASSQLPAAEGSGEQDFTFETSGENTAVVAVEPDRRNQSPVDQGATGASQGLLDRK
- assay_procedure: ELISA
// reported EC50 for each item listed
Write it as a number; the unit ng/mL goes unstated.

// known answers, use as guide
# binder, unit_string, EC50
rows = [
    ("antibody 1610 (antibody, V domains shown) VH: QVQLHQPGTSLVKPGASVKLSCKASGYNFSSYYMHWVKQRPGQGLEWIGTIHPSDSTTNCNQKFKGKATLTVDKSSRTAYMQLNSLTFEDSAVYYCANFVYWGQGTSVTVSS VL: DIVITQDELSNPVTSGDSVSISCRSSKSLLYKDGKTYLNWFLQRPGQSPQLLIYVVSTRASGVSDRFSGSGSGTDFTLEISRVKAEDVGVYYCQQLVEYPYTFGGGTKLEIK", "ng/mL", 2.7),
    ("antibody 2610 (antibody, V domains shown) VH: QVQLHQPGTSLVKPGASVKLSCKASGYSFSSYYMHWVKQRPGQGLEWIGTIHPSDSTTNCNQKFKGKATLTVDKSSRTAYMQLNSLTFEDSAVYYCANFVYWGQGTSVTVSS VL: DIVITQDELSNPVTSGDSVSISCRSSKSLLYKDGKTYLNWFLQRPGQSPQLLIYVVSTRASGVSDRFSGSGSGTDFTLEISRVKAEDVGVYYCQQLVEYPYTFGGGTKLEIK", "ng/mL", 7),
    ("antibody 2510 (antibody, V domains shown) VH: QVQLHQPGTSLVKPGASVKLSCKASGYNFSSYYMHWVKQRPGQGLEWIGTIHPSDSTTNYNQKFKGKATLTVDKSSRTAYMQLNSLTFEDSAVYYCANFVYWGQGTSVTVSS VL: DIVITQDELSNPVTSGDSVSISCRSSKSLLYKDGKTYLNWFLQRPGQSPQLLIYVVSTRASGVSDRFSGSGSGTDFTLEISRVKAEDVGVYYCQQLVEYPYTFGGGTKLEIK", "ng/mL", 4.9),
]

// moving on: another record for EC50
Prompt: // query EC50 value for entry antibody 2810 (antibody, V domains shown) VH: QVQLHQPGTSLVKPGASVKLSCKASGYSFSSYYMHWVKQRPGQGLEWIGTIHPSDSTTNYNQKFKGKATLTVDKSSRTAYMQLNSLTFEDSAVYYCANFVYWGQGTSVTVSS VL: DIVITQDELSNPVTSGDSVSISCRSSKSLLYKDGKTYLNWFLQRPGQSPQLLIYVVSTRASGVSDRFSGSGSGTDFTLEISRVKAEDVGVYYCQQLVEYPYTFGGGTKLEIK
Response: 5.3
